Hey, just so you know, these numbers are from BindingDB's records for doi:10.1016/j.bmc.2021.116161.

test: Inhibition of […] in mouse 32Dbeta cells assessed as decrease in cell growth in presence of IL2 incubated for 30 mins followed by IL2 addition and measured after 2.5 days by alamar blue assay
pIC50: −log10 of the molar value.
readout: pIC50

// worked examples, pIC50 included
smilesRepresentation | result
CN(C)CCCn1nc(Cc2nnc(SCCCCCCCC(=O)Nc3ccc(Cl)cc3Cl)n2C)c2ccccc2c1=O | 5.49
Cn1c(Cc2nn(C)c(=O)c3ccccc23)nnc1SCCCCCCCC(=O)Nc1ccc(Cl)cc1Cl | 5.41

I. Cn1nc(Cc2nnc(SCCCCCCCC(=O)Nc3ccc(Cl)cc3Cl)[nH]2)c2ccccc2c1=O
II. Cn1nc(Cc2nnc(SCC(=O)Nc3ccc(Cl)cc3Cl)n2CCC=O)c2ccccc2c1=O
III. CN(C)CCCn1nc(Cc2nnc(SCC(=O)Nc3ccc(Cl)cc3Cl)n2C)c2ccccc2c1=O
// query Rank entries according to their pIC50, from the largest number down. Enter labels, ranked according to the request.
// result I, II, III
(I: 5.46, II: 5.19, III: 4.78)
